Test system: Human immunodeficiency virus 1
Assay: Antiviral activity against HIV1 harboring reverse transcriptase […]/K103N double mutant infected in HEK293T cells transfected with plasmid VSV-G/pNL4-3.luc.R-E- assessed as inhibition of viral replication after 48 hrs by luciferase reporter gene assay
Assay type: functional, organism-based, HEK-293T
Conditions: hek-293t
pIC50: −log10 of the molar value.
property.measured: pIC50

[[record]]
compound = "O=C1Nc2ccc(Cl)cc2[C@@](C#CC2CC2)(C(F)(F)F)O1 [EFAVIRENZ]"
value_measured = 5.60


----------
Some compounds, each annotated with its measured Time.
Tested on: Human immunodeficiency virus 1
Assay: Antiviral activity against HIV1 infected in 293T cells assessed as time of 50% failure
Type: functional
property.measured: Time (h)

[[record]]
compound = "Cc1nnc(C(=O)NC(C)(C)c2nc(C(=O)NCc3ccc(F)cc3)c(O)c(=O)n2C)o1 [RALTEGRAVIR]"
unit_symbol = "h"
value_measured = 12

[[record]]
compound = "COc1ccc(CNc2nc(-c3ccccc3F)c(Cc3ccccc3)s2)cc1"
unit_symbol = "h"
value_measured = 8.6

[[record]]
compound = "Cc1cn([C@H]2C[C@H](N=[N+]=[N-])[C@@H](CO)O2)c(=O)[nH]c1=O [ZIDOVUDINE]"
unit_symbol = "h"
value_measured = 7.7

[[record]]
compound = "Cc1ccnc2c1NC(=O)c1cccnc1N2C1CC1 [NEVIRAPINE]"
unit_symbol = "h"
value_measured = 8.3

[[record]]
compound = "COc1ccc(CNc2nc(-c3ccccc3Cl)c(Cc3ccccc3)s2)cc1"
unit_symbol = "h"
value_measured = 9

[[record]]
compound = "COc1ccc(CNc2nc(-c3ccc(F)cc3F)c(Cc3ccccc3)s2)cc1"
unit_symbol = "h"
value_measured = 8.6

[[record]]
compound = "O=C1Nc2ccc(Cl)cc2[C@@](C#CC2CC2)(C(F)(F)F)O1 [EFAVIRENZ]"
unit_symbol = "h"
value_measured = 8.8

